# assayed-target: T1, TauC3 (C-terminally truncated tau fragment ending at aspartate 421 of htau40) (human, UniProt P10636 1-738)
# T1 construct: Generated and purified by Genscript; also called Human TauC3; recombinant TauC3 protein
# T1 sequence (P10636 other isoform, or with tags, fused parts or gaps): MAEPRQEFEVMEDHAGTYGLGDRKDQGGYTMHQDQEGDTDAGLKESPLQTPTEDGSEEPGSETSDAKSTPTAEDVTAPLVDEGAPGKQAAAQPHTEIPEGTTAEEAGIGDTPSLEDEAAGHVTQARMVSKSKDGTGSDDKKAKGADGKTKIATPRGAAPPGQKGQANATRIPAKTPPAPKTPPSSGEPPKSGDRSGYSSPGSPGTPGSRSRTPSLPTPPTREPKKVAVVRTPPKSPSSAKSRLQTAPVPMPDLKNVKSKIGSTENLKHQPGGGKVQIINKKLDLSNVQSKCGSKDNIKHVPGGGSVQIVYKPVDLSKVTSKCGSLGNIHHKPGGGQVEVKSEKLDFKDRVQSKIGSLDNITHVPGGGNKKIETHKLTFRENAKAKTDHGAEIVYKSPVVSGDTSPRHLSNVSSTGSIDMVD
# assay-procedure: Biacore off-rate ranking, TauC3 amine-coupled on CM5, one antibody concentration; two-phase decay fit, slow phase
# Design: unit not given here
measure-name: Kslow

Known Kslow results, listed for orientation:
Tau01 HMKJ (antibody, V domains shown, human IgG4 kappa (HuG4K)) VH: LVQLVESGGGLVQPGGSLKLSCAASGFTFNTYAMNWVRQASGKGLEWVARIRSKSNNYATYYAASVKGRFTISRDDSKSMAYLQMDSLKTEDTAVYYCVGGGDFWGQGTLVTVSS VL: DIQMTQSPSSLSASVGDRVTITCRASQEISVYLGWYQQKPGKAPKRLIYGAFSLQSGVPSRFSGSRSGTEFTLTISSLQPEDFATYYCLQYVRYPWTFGGGTKVEIK | 0.00123
Tau01 HMKE HuG4k (antibody, V domains shown, human IgG4 kappa (HuG4K); also called KMKE) VH: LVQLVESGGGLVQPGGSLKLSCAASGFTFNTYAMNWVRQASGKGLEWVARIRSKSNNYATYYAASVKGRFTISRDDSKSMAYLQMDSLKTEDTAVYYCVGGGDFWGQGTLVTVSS VL: DIQMTQSPSSLSASVGDRVTITCRASQEISVYLGWFQQKPGKAPKRLIYGAFKLQSGVPSRFSGSRSGTEFTLTISSLQPEDFATYYCLQYVRYPWTFGGGTKVEIK | 0.000883
Tau01 HMKM HuG4k (antibody, V domains shown, human IgG4 kappa (HuG4K)) VH: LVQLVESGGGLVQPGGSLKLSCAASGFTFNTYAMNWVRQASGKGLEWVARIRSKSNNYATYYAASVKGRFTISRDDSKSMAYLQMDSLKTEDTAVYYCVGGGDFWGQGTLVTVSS VL: DIQMTQSPSSLSASVGDRVTITCRASQEISVYLSWFQQKPGKAIKRLIYGAFSLQSGVPSRFSGSRSGTEYTLTISSLQPEDFATYYCLQYVRYPWTFGGGTKVEIK | 0.000553
MoTau01 HuG4K chimeric antibody (antibody, V domains shown, Mouse variable regions with human IgG4 / kappa constant regions (pHuG4, pHuK); also called chimeric Tau01) VH: EVQVVESGGGLVQPKGSLKLSCAASGFTFNTYAMNWVRQAPGKGLEWVARIRSKSNNYATYYADSVKDRFTISRDDSQSMVYLQMNNLKTEDTAMYYCVGGGDFWGQGTALTVSS VL: DIQMTQSPSSLSASLGERVSLTCRASQEISVYLSWFQQKPDGTIKRLIYGAFTLDSGVPKRFSGSRSGSDYSLTISSLESEDFADYYCLQYVRYPWTFGGGTKLEIK | 0.000414
Tau01 HMKP HuG4k (antibody, V domains shown, human IgG4 kappa (HuG4K); Lead candidate) VH: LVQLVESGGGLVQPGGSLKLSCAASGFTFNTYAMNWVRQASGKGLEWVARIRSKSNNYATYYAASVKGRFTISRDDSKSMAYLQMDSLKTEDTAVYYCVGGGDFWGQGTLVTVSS VL: DIQMTQSPSSLSASVGDRVTITCRASQEISVYLGWFQQKPGKAPKRLIYGAFKLQSGVPSRFSGSRSGTEYTLTISSLQPEDFATYYCLQYVRYPWTFGGGTKVEIK | 0.000777

Q) Recorded Kslow of Tau01 HMKC (antibody, V domains shown, human IgG4 kappa (HuG4K)) VH: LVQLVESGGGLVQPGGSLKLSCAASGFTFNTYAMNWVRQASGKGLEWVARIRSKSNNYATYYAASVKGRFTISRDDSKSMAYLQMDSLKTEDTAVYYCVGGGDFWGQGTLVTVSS VL: DIQMTQSPSSLSASVGDRVTITCRASQEISVYLSWFQQKPGKAPKRLIYGAFKLQSGVPSRFSGSRSGTEYTLTISSLQPEDFATYYCLQYVRYPWTFGGGTKVEIK , please.
A) 0.000711

Q) Recorded Kslow of Tau01 HMKO HuG4k (antibody, V domains shown, human IgG4 kappa (HuG4K)) VH: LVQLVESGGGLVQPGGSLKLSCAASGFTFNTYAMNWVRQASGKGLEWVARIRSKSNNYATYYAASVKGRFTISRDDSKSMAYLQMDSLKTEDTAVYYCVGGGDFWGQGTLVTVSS VL: DIQMTQSPSSLSASVGDRVTITCRASQEISVYLGWYQQKPGKAPKRLIYGAFSLQSGVPSRFSGSRSGTEYTLTISSLQPEDFATYYCLQYVRYPWTFGGGTKVEIK , please.
A) 0.000349

Q) Recorded Kslow of Tau01 HMKB (antibody, V domains shown, human IgG4 kappa (HuG4K)) VH: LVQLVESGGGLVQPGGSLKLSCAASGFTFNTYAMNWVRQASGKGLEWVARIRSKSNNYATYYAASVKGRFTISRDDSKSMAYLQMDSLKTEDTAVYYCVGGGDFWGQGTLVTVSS VL: DIQMTQSPSSLSASVGDRVTITCRASQEISVYLSWFQQKPGKAIKRLIYGAFTLQSGVPSRFSGSRSGSEYTLTISSLQPEDFATYYCLQYVRYPWTFGGGTKVEIK , please.
A) 0.000138

Q) Recorded Kslow of Tau01 HMKN HuG4k (antibody, V domains shown, human IgG4 kappa (HuG4K)) VH: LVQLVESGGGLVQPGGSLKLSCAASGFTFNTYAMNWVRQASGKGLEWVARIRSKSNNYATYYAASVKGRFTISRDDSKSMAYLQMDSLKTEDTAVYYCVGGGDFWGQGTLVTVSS VL: DIQMTQSPSSLSASVGDRVTITCRASQEISVYLGWYQQKPGKAPKRLIYGAFTLQSGVPSRFSGSRSGTEYTLTISSLQPEDFATYYCLQYVRYPWTFGGGTKVEIK , please.
A) 0.000823

Q) Recorded Kslow of Tau01 HMKI (antibody, V domains shown, human IgG4 kappa (HuG4K)) VH: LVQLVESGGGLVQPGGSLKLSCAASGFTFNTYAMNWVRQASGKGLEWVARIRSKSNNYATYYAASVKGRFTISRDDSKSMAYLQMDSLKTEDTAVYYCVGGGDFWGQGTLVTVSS VL: DIQMTQSPSSLSASVGDRVTITCRASQEISVYLGWYQQKPGKAPKRLIYGAFKLQSGVPSRFSGSRSGTEYTLTISSLQPEDFATYYCLQYVRYPWTFGGGTKVEIK , please.
A) 0.00179
